# measurement protocol: self-splicing fitness, log relative to wild type (ln ratio); higher = more splicing; Tetrahymena group I intron in knt gene, E. coli kanamycin selection, DiMSum; sequences stand for … in CUCUCU…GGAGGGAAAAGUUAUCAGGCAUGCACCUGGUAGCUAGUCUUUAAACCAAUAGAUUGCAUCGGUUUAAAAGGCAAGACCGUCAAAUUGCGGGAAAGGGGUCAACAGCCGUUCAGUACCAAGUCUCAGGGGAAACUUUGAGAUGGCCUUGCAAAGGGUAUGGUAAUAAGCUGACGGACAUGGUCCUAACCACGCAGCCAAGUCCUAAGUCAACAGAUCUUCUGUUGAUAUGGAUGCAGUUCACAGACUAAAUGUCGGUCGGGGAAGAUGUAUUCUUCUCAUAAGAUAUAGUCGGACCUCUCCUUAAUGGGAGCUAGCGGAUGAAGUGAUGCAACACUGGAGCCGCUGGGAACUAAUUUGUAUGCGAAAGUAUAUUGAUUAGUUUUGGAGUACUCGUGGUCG;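 also: selection with 25 µg/mL kanamycin versus none on LB agar overnight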
# stated conditions: 37 °C
yes (1) means recorded self-splicing fitness (ln) is -0.3 or above; no (0) means it is below -0.3.

>  <input sequence>
UGAGAGCAAUAUUACGCACC

>  <label value>
no (0)

$$$$
>  <input sequence>
CUUGAGCAAUAUUACGACCG

>  <label value>
no (0)

$$$$
>  <input sequence>
GUCGAGCAAUAUUACGUGCG

>  <label value>
no (0)

$$$$
>  <input sequence>
AACAAGCAAUAUUACGAUCA

>  <label value>
no (0)

$$$$
>  <input sequence>
UUCGAGCAAUAUUACGAUGA

>  <label value>
yes (1)

$$$$
>  <input sequence>
AGUUAGCAAUAUUACGAUUC

>  <label value>
yes (1)

$$$$
>  <input sequence>
UAGAAGCAAUAUUACGAUUA

>  <label value>
yes (1)

$$$$
>  <input sequence>
UCGCAGCAAUAUUACGAUUG

>  <label value>
no (0)

$$$$
>  <input sequence>
UCUGAGCAAUAUUACGAAUG

>  <label value>
no (0)

$$$$
>  <input sequence>
AGUGAGCAAUAUUACGACUG

>  <label value>
yes (1)

$$$$
>  <input sequence>
UAAAAGCAAUAUUACGAAAU

>  <label value>
no (0)

$$$$
>  <input sequence>
UGGCAGCAAUAUUACGGGCU

>  <label value>
no (0)

$$$$
>  <input sequence>
UCUAAGCAAUAUUACGGAAA

>  <label value>
no (0)

$$$$
>  <input sequence>
CUUUAGCAAUAUUACGACAC

>  <label value>
no (0)

$$$$
>  <input sequence>
ACAGAGCAAUAUUACGAACU

>  <label value>
no (0)

$$$$
>  <input sequence>
UCAAAGCAAUAUUACGGCGA

>  <label value>
no (0)

$$$$
>  <input sequence>
GUAUAGCAAUAUUACGUCAU

>  <label value>
no (0)

$$$$
>  <input sequence>
GCUUAGCAAUAUUACGUCAA

>  <label value>
no (0)

$$$$
>  <input sequence>
GAAUAGCAAUAUUACGCAUG

>  <label value>
no (0)

$$$$
>  <input sequence>
CAUCAGCAAUAUUACGCUUC

>  <label value>
yes (1)

$$$$
>  <input sequence>
GUGCAGCAAUAUUACGGUCG

>  <label value>
no (0)

$$$$
>  <input sequence>
GUUCAGCAAUAUUACGAUAU

>  <label value>
yes (1)

$$$$
>  <input sequence>
GUCUAGCAAUAUUACGUCUC

>  <label value>
yes (1)

$$$$
>  <input sequence>
UUACAGCAAUAUUACGAACU

>  <label value>
yes (1)

$$$$
>  <input sequence>
CAGAAGCAAUAUUACGAGCG

>  <label value>
yes (1)

$$$$
>  <input sequence>
AUUUAGCAAUAUUACGAACC

>  <label value>
yes (1)

$$$$
>  <input sequence>
CUCAAGCAAUAUUACGCUGU

>  <label value>
no (0)

$$$$
>  <input sequence>
AUGAAGCAAUAUUACGGGAG

>  <label value>
no (0)

$$$$
>  <input sequence>
CCACAGCAAUAUUACGGUGC

>  <label value>
no (0)

$$$$
>  <input sequence>
CAGCAGCAAUAUUACGUUAG

>  <label value>
no (0)

$$$$
>  <input sequence>
GCGAAGCAAUAUUACGCACU

>  <label value>
no (0)

$$$$
>  <input sequence>
GUGUAGCAAUAUUACGAGAG

>  <label value>
no (0)

$$$$
>  <input sequence>
GGUCAGCAAUAUUACGGGAG

>  <label value>
no (0)

$$$$
